Values from patent US20260137707A1

# min ATXN2-luc per record follows
tested on: ATXN2-luc; assay: Secondary assays, Bright-Glo luciferase in H2 and S2 cells; assay type: cell-based; conditions: minimum ATXN2-luc luciferase over 12 doses; H2 and S2 cells
QUANTITY: min ATXN2-luc (%)

[[record]]
smiles_repr = "Cn1cc(-c2cnn3c(N)c(Br)c([C@H]4CCCNC4)nc23)cn1"
quantity = "min ATXN2-luc"
number = 25.49

[[record]]
smiles_repr = "Nc1ccc(-c2ccc3ncc4ccc(=O)n(-c5cccc(C(F)(F)F)c5)c4c3c2)cn1"
quantity = "min ATXN2-luc"
number = 25.42

[[record]]
smiles_repr = "CN[C@H]1CN(c2ccc3c(=O)c(C(=O)O)cn(-c4nccs4)c3n2)C[C@@H]1OC"
quantity = "min ATXN2-luc"
number = 15.1

[[record]]
smiles_repr = "C[C@@H](Oc1ccc2[nH]nc(/C=C/c3cnn(CCO)c3)c2c1)c1c(Cl)cncc1Cl"
quantity = "min ATXN2-luc"
number = 15.26

[[record]]
smiles_repr = "C[C@@H]1O[C@@H](O[C@@H]2C=C3CC[C@@H]4[C@H](CC[C@]5(C)[C@@H](c6ccc(=O)oc6)CC[C@]45O)[C@@]3(C)CC2)[C@H](O)[C@H](O)[C@H]1O"
quantity = "min ATXN2-luc"
number = 7.986

[[record]]
smiles_repr = "CCC(=C/[C@H](C)C/C=C/C(C)=C/[C@@H](C)C(=O)[C@@H](C)[C@H](O)[C@@H](C)C/C(C)=C/C(=O)O)/C=C/[C@@H]1OC(=O)C=C[C@@H]1C"
quantity = "min ATXN2-luc"
number = 28.33

[[record]]
smiles_repr = "Cc1cnc(NC(=O)CN2CCN(c3ccccn3)CC2)s1"
quantity = "min ATXN2-luc"
number = 38.57

[[record]]
smiles_repr = "C=CCNc1c(O)cc2c(O)c1C[C@@H](C)C[C@H](OC)[C@H](O)[C@@H](C)/C=C(\\C)[C@H](OC(N)=O)[C@@H](OC)/C=C\\C=C(/C)C(=O)N2"
quantity = "min ATXN2-luc"
number = 24.21

